B1: Ribonuclease HI, P0A7Y4 (parent)
chain: MLKQVEIFTDGSCLGNPGPGGYGAILRYRGREKTFSAGYTRTTNNRMELMAAIVALEALKEHCEVILSTDSQYVRQGITQWIHNWKKRGWKTADKKPVKNVDLWQRLDAALGQHQIKWEWVKGHAGHPENERCDELARAAAMNPTLEDTGYQVEV

Variants of: B1
Assay context: Escherichia coli (strain K12); pH 5.5; Thermal; CD; glycine-HCl 10 mM; reversible: yes; structure 2RN2; whole UniProt chain shown
The following variants are shown together with reported Tm values.
Please give a number only; it is taken to be in °C.

| Mutation id | Tm, °C |
| --- | --- |
| A125T | 52 |
| K91R D94E K95G | 57.6 |
| K91R K95G | 57.8 |
| K91R D94E | 50.2 |
| Y28F R29H G30A R31H | 48.8 |

Read the next record carefully.
Query string: Given D94R K95G , respond with its Tm.
Result string: 57.5
